assay: Half life in mouse liver microsomes; format: ADME, Microsome
Metric Name: half-life (min)
Return type: number; implicit unit min.

Recorded half-life (molecule `Cc1cc(Cl)cc2cc(C(=O)N3CCNCC3)[nH]c12` ): 16

Recorded half-life (molecule `Cc1cc(Cl)cc2cc(C(=O)N3CC(N4CCCC4)C3)[nH]c12` ): 11

Recorded half-life (molecule `Cc1cc(Cl)cc2cc(C(=O)N3CCN(C)CC3)[nH]c12` ): 2

Recorded half-life (molecule `CNC1CN(C(=O)c2cc3cc(Cl)cc(C)c3[nH]2)C1` ): 26

Recorded half-life (molecule `CN[C@@H]1CCN(C(=O)c2cc3cc(Cl)cc(C)c3[nH]2)C1` ): 27

Recorded half-life (molecule `CN1CCN(C(=O)c2cc3cc(Cl)cc(N)c3[nH]2)CC1` ): 14

Values compiled from ChEMBL document CHEMBL2046401.
